meta.source: PubChem BioAssay (NCI)

Test system: HOP-92 NSCLC
Experiment: NCI tumour cell line growth inhibition, 48 h
Reported TGI values for a set of compounds

{"compound": "c1ccc2nc3[nH]c4ccccc4c3cc2c1", "units.of.measure": "µM", "value.operator": "=", "TGI": 35.5}
{"compound": "Cn1c(C(C#N)c2cc(Cl)ncn2)nc2ccccc21 (configuration not stated)", "units.of.measure": "µM", "value.operator": ">", "TGI": 100}
{"compound": "CC(=O)Oc1ccn2nc(C)c(Br)c2c1Br", "units.of.measure": "µM", "value.operator": "=", "TGI": 36.7}
{"compound": "Oc1ccc2c(c1)OCC(O)(c1ccccc1O)C2 (configuration not stated)", "units.of.measure": "µM", "value.operator": ">", "TGI": 100}
{"compound": "CC1=C(C(=O)OCCO[N+](=O)[O-])C(c2ccccc2C(F)(F)F)C(C(=O)OC(C)C)=C(C)N1 (configuration not stated)", "units.of.measure": "µM", "value.operator": "=", "TGI": 26.8}
{"compound": "CCSc1nc2sc(C)c(C)c2c(=O)n1-c1ccc(C(=O)O)cc1", "units.of.measure": "µM", "value.operator": ">", "TGI": 100}
{"compound": "Cc1c(O)c(=O)ccn1C1OC(CO)C(O)C1O (configuration not stated)", "units.of.measure": "µM", "value.operator": ">", "TGI": 100}
{"compound": "CCCCCCCCCCCCCC/C(C(=O)OC)=C(/O)C(=O)OCC", "units.of.measure": "µM", "value.operator": "=", "TGI": 54.5}
{"compound": "Cc1cccc(-c2cc(=O)c3ccc(C)nc3[nH]2)c1", "units.of.measure": "µM", "value.operator": "=", "TGI": 57.7}
{"compound": "Cc1cc(=O)oc2cc(OC(=O)Nc3ccc(Cl)c(Cl)c3)ccc12", "units.of.measure": "µM", "value.operator": "=", "TGI": 43.4}
{"compound": "Oc1[nH]c2ccccc2c1N=NC1=NCCCCN1", "units.of.measure": "µM", "value.operator": ">", "TGI": 100}
{"compound": "CC1(C)OCC2OC3([C@H](O)CCO)OC(C)(C)OC3C2O1 (some centres not stated)", "units.of.measure": "µM", "value.operator": ">", "TGI": 100}

====

Test system: IGROV1 ovarian
Assay: NCI tumour cell line growth inhibition, 48 h; in the data active means GI50 below about 0.43 µM; inactive means the rest
Classes used: 1.0 for active, 0.0 for inactive

{"chemical.string": "COc1cc2c3c(n(CCCN)c(=O)c2cc1OC)-c1ccc(F)cc1C3=O", "class.label": 0.0}
{"chemical.string": "C#CCN1CCN(C(=S)N/N=C(\\C)c2ccccn2)CC1", "class.label": 1.0}
{"chemical.string": "COc1cc2c3c(n(CCCN4CCN(C)CC4)c(=O)c2cc1OC)-c1cc2c(cc1C3=O)OCO2", "class.label": 0.0}
{"chemical.string": "COc1ccc(/C=C(/C(=O)N2CCCC2)c2cc(OC)c(OC)c(OC)c2)cc1N", "class.label": 0.0}
{"chemical.string": "CN(C)c1ccc(/C=C/c2sc3ccc4ccccc4c3[n+]2C)cc1", "class.label": 1.0}
{"chemical.string": "COc1ccc(-c2cnc(-c3ccc(F)cc3)[nH]2)cc1", "class.label": 0.0}
{"chemical.string": "COc1ncc(-c2nc3c(n2C(C)C)[C@H](c2ccc(Cl)cc2)N(c2cc(Cl)cn(C)c2=O)C3=O)c(OC)n1", "class.label": 0.0}

====

Quick list: TGI per entry.
System: SNB-19 CNS
Experiment: NCI tumour cell line growth inhibition, 48 h
readout.type: TGI

{"molecule": "CC(=O)O[C@H]1[C@@H]2[C@@H]3[C@@H](C[C@H]1C)[C@@H](C)CO[C@@]1(C)CC/C=C(/C)C[C@@H]2O[C@@H]31", "assay.result": "> 100 µM"}
{"molecule": "COc1ccc2nc(NCCCNCCO)c3sc4ccc(F)cc4c(=O)c3c2c1", "assay.result": "3.2 µM"}
{"molecule": "CCSc1nc2sc(C)c(C)c2c(=O)n1-c1ccc(C(=O)O)cc1", "assay.result": "> 100 µM"}
{"molecule": "COc1cc2c3c(n(CCCN)c(=O)c2cc1OC)-c1ccc(F)cc1C3=O", "assay.result": "15.9 µM"}
{"molecule": "Nc1ccn([C@H]2C[C@@H](O)[C@@H](CO)S2)c(=O)n1", "assay.result": "> 100 µM"}
{"molecule": "CC(SC(=S)N1CCCCC1)C(=O)Nc1nnc(-c2ccc(Cl)cc2)o1 (configuration not stated)", "assay.result": "> 100 µM"}
{"molecule": "OC1C(O)C(O)C(O)C(O)C1O (configuration not stated)", "assay.result": "> 1000 µM"}
{"molecule": "c1ccc2nc3[nH]c4ccccc4c3cc2c1", "assay.result": "4.43 µM"}
{"molecule": "CC[N+](CC)=c1ccc2nc3c(cc(NCc4ccccc4)c4ccccc43)oc-2c1", "assay.result": "2.51 µM"}
{"molecule": "COc1cc(NN=C(c2ccc(O)cc2)c2ccc(O)cc2)c([N+](=O)[O-])cc1[N+](=O)[O-]", "assay.result": "23.3 µM"}
{"molecule": "CCCCCCCCCCCCCCCCCCNc1ccn(C2OC(COP(=O)(O)O)C(O)C2O)c(=O)n1 (configuration not stated)", "assay.result": "> 100 µM"}
{"molecule": "O=C(O)c1c(CC(Cc2ccc3c(c2)CCCC3)C(=O)O)ccc2c1CCCC2 (configuration not stated)", "assay.result": "> 100 µM"}
{"molecule": "CC(CN)[C@@H]1CC[C@]2(CO)CC[C@]3(C)[C@H](CC[C@@H]4[C@@]5(C)CCC(NCCO)C(C)(C)[C@@H]5CC[C@]43C)[C@@H]12 (some centres not stated)", "assay.result": "3.54 µM"}
{"molecule": "O=C(CSc1nnc(Cc2ccccc2)o1)Nc1ccc(Cl)cc1", "assay.result": "> 100 µM"}
{"molecule": "O=C(O)CCC1COc2ccccc2O1 (configuration not stated)", "assay.result": "> 10 µM"}
{"molecule": "Oc1cc(Cl)cc2cc(Br)cnc12", "assay.result": "> 100 µM"}
{"molecule": "CC(C)CCCC(C)[C@H]1CC[C@H]2[C@@H]3CC[C@H]4C[C@@H](CCC=C(c5cc(Cl)c(O)c(C(=O)OC(C)(C)C)c5)c5cc(Cl)c(O)c(C(=O)OC(C)(C)C)c5)CC[C@]4(C)[C@H]3CC[C@]12C (some centres not stated)", "assay.result": "> 50 µM"}
{"molecule": "Cc1cc(Cc2cc(C)c(NC(=O)C(=O)C3C(=O)NC(=S)NC3=O)c(C(C)C)c2)cc(C(C)C)c1NC(=O)C(=O)C1C(=O)NC(=S)NC1=O", "assay.result": "> 100 µM"}
{"molecule": "COc1nn(Cc2ccccc2F)c2ccc([N+](=O)[O-])cc12", "assay.result": "> 100 µM"}
{"molecule": "COc1ccc(NC(=O)C(=O)NNC(=O)c2sc(NNC(C)=O)nc2C)c([N+](=O)[O-])c1", "assay.result": "> 100 µM"}
{"molecule": "Nc1ccc(C#Cc2cncnc2Nc2ccc(OCc3cccc(F)c3)c(Cl)c2)cc1", "assay.result": "> 25 µM"}
{"molecule": "NC(=O)N/N=C(\\Cc1nc2ccc(C(=O)c3ccccc3)cc2[nH]c1=O)C(=O)Nc1ccc(Br)cc1", "assay.result": "> 100 µM"}
{"molecule": "COc1ccc2cc(C(=O)/C=C/c3cccc(Cl)c3Cl)ccc2c1", "assay.result": "> 83.3 µM"}
{"molecule": "[Cl-].[Rh+3].c1ccc(-c2ccnc3c2ccc2c(-c4ccccc4)ccnc23)cc1.c1ccc(-c2ccnc3c2ccc2c(-c4ccccc4)ccnc23)cc1.c1ccc(-c2ccnc3c2ccc2c(-c4ccccc4)ccnc23)cc1", "assay.result": "> 100 µM"}
{"molecule": "COc1cccc(/C=C/C(=O)c2ccc(Cl)cc2Cl)c1OC", "assay.result": "14.9 µM"}
{"molecule": "NC(=O)c1csc(C2C=CC(CO)O2)n1 (configuration not stated)", "assay.result": "> 100 µM"}
{"molecule": "Cc1ccc(NS(=O)(=O)c2cc(C(C)(C)C)ccc2OCCOCCOCCOc2ccc(C(C)(C)C)cc2S(=O)(=O)Nc2ccc(C)cc2)cc1", "assay.result": "> 100 µM"}
{"molecule": "CCOC(=O)CCC(C(=O)OCC)n1nc2ccc(Nc3c(C)[n+]([O-])c4cc(Cl)ccc4[n+]3[O-])cc2n1 (configuration not stated)", "assay.result": "> 100 µM"}
{"molecule": "COC1(OC)N=C(N)C2(C#N)C(C)CC(=O)N(N(C)C)C12C#N (configuration not stated)", "assay.result": "> 100 µM"}
{"molecule": "N#CCCC(CC#N)N1CCN(CCO)CC1 (configuration not stated)", "assay.result": "> 100 µM"}
{"molecule": "C=C(CNCCc1ccc(O)cc1)[C@@H]1CC[C@]2(CO)CC[C@]3(C)[C@H](CC[C@@H]4[C@@]5(C)CCC(=O)C(C)(C)[C@@H]5CC[C@]43C)[C@@H]12", "assay.result": "3.02 µM"}
{"molecule": "CC1(C)OCC2OC3([C@H](O)CCO)OC(C)(C)OC3C2O1 (some centres not stated)", "assay.result": "> 100 µM"}
{"molecule": "C=C(C)CCC1CCCCC(CN(C)C)C1=O (configuration not stated)", "assay.result": "> 100 µM"}
{"molecule": "CCCn1cnc2c(NN=O)ncnc21", "assay.result": "> 100 µM"}
{"molecule": "NC(=O)c1[nH]nc(C2OC(CO)C(O)C2O)c1O (configuration not stated)", "assay.result": "> 4620 µM"}
{"molecule": "O=C(O)c1c(-c2c3ccc(=O)cc-3oc3cc(O)ccc23)cc2ccccc2c1-c1ccccc1", "assay.result": "> 100 µM"}
{"molecule": "Cc1ccc(S(=O)(=O)N2CCSCCSCCN(S(=O)(=O)c3ccc(C)cc3)CCN(S(=O)(=O)c3ccc(C)cc3)CC2)cc1", "assay.result": "> 100 µM"}
